ASSAY_NAME: ATG_TA_CIS: Attagene CIS-FACTORIAL HepG2 Assay for human TA Basal Promoter (AID 2282964)
TEST_CONTEXT: HepG2 Attagene CIS-factorial TA basal promoter reporter; actives raise or lower the signal
Calls of active or inactive are those of the source. The calls were made as follows: active = hit-call score of the fitted dose curve at least 0.9, where 1 is the maximum; inactive = score below 0.9.
Outcomes: TRUE (active), FALSE (inactive)

[
  {
    "COMPOUND": "c1ccc(CCCc2ccccn2)cc1",
    "CLASS_NAME": "FALSE"
  },
  {
    "COMPOUND": "COC(=O)c1ccc(C)cc1",
    "CLASS_NAME": "FALSE"
  },
  {
    "COMPOUND": "CC1(C)[C@H](C(=O)OCc2cccc(Oc3ccccc3)c2)[C@@H]1C=C(Cl)Cl",
    "CLASS_NAME": "FALSE"
  },
  {
    "COMPOUND": "CC(O)C(C)O (centres undefined)",
    "CLASS_NAME": "FALSE"
  },
  {
    "COMPOUND": "CCCCO",
    "CLASS_NAME": "FALSE"
  },
  {
    "COMPOUND": "C[C@]12CC[C@H]3[C@@H](CCC4=CC(=O)CC[C@@]43C)[C@@H]1CC[C@@H]2C(=O)CO",
    "CLASS_NAME": "TRUE"
  },
  {
    "COMPOUND": "O=C1CCCCCCCCCCCCCCO1",
    "CLASS_NAME": "FALSE"
  },
  {
    "COMPOUND": "O=C(O)CN(CCN(CC(=O)O)CC(=O)O)CCN(CC(=O)O)CC(=O)O",
    "CLASS_NAME": "FALSE"
  },
  {
    "COMPOUND": "CC(C)OP(=O)(CP(=O)(OC(C)C)OC(C)C)OC(C)C",
    "CLASS_NAME": "FALSE"
  },
  {
    "COMPOUND": "CCC(=O)OCc1ccccc1",
    "CLASS_NAME": "FALSE"
  },
  {
    "COMPOUND": "CC(C)c1cccc(O)c1",
    "CLASS_NAME": "FALSE"
  },
  {
    "COMPOUND": "NCCCN1CCOCC1",
    "CLASS_NAME": "FALSE"
  },
  {
    "COMPOUND": "CNC(=O)Oc1ccc2c(c1)[C@]1(C)CCN(C)[C@@H]1N2C",
    "CLASS_NAME": "FALSE"
  },
  {
    "COMPOUND": "CCCCCCCCC",
    "CLASS_NAME": "FALSE"
  }
]

###

MEASUREMENT_TARGET: rat Thyrotropin Releasing Hormone Receptor (TRH), Trhr (gene 25570) (UniProt Q01717)
Sequence (Q01717 whole entry, looked up): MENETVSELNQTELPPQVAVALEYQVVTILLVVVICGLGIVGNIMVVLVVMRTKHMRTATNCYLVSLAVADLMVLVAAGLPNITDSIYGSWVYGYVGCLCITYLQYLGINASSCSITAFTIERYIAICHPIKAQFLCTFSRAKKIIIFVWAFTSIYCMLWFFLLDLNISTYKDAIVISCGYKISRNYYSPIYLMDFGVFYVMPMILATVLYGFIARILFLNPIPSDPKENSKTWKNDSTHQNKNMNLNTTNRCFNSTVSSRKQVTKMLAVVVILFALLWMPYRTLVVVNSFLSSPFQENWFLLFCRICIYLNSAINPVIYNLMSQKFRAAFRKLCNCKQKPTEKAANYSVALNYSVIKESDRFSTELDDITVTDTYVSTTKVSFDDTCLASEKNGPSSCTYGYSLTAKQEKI
ASSAY_NAME: NVS_GPCR_rTRH: NovaScreen (NVS) G Protein-Coupled Receptor Assay for rat Thyrotropin Releasing Hormone Receptor (TRH) (AID 2283329);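 also: hit means lower bound tracer signal versus DMSO baseline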
Description: NVS_GPCR_rTRH is a biochemical, single-readout assay that uses extracted gene-proteins from Rat forebrain membranes in a tissue-based cell-free assay. Measurements were taken 4 hours after chemical dosing in a 48-well plate.NVS_GPCR_rTRH is one of one assay component(s) measured or calculated from the NVS_GPCR_rTRH assay. […] This assay endpoint, NVS_GPCR_rTRH, was analyzed in the positive analysis fitting direction relative to DMSO as the negative control and baseline of activity. […]
Results filed as inconclusive are left out. Calls of active or inactive are those of the source. How the source made its calls: active means hit-call score of the fitted dose curve at least 0.9, where 1 is the maximum; inconclusive means response in the unintended direction; inactive means score below 0.9.

[
  {
    "COMPOUND": "CC1COc2ccccc2N1C(=O)C(Cl)Cl (stereo unspecified)",
    "outcome": "inactive"
  },
  {
    "COMPOUND": "CC1=CC(=O)NS(=O)(=O)O1",
    "outcome": "inactive"
  },
  {
    "COMPOUND": "C[Si](O[Si](C)(C)C)O[Si](C)(C)C",
    "outcome": "inactive"
  },
  {
    "COMPOUND": "O=C(O)c1ccc(C(=O)O)cc1",
    "outcome": "inactive"
  },
  {
    "COMPOUND": "CCCC/C=C\\CCCCCCCCCC=O",
    "outcome": "inactive"
  },
  {
    "COMPOUND": "C=C(C)C(=O)O",
    "outcome": "inactive"
  }
]
